Target: T1, recombinant human Fibroblast Activation Protein (FAP) with N-terminus 6x histidine tag (human, UniProt Q12884 26-760)
T1 construct: Bought protein; also called rFAP; rhFAP
T1 sequence: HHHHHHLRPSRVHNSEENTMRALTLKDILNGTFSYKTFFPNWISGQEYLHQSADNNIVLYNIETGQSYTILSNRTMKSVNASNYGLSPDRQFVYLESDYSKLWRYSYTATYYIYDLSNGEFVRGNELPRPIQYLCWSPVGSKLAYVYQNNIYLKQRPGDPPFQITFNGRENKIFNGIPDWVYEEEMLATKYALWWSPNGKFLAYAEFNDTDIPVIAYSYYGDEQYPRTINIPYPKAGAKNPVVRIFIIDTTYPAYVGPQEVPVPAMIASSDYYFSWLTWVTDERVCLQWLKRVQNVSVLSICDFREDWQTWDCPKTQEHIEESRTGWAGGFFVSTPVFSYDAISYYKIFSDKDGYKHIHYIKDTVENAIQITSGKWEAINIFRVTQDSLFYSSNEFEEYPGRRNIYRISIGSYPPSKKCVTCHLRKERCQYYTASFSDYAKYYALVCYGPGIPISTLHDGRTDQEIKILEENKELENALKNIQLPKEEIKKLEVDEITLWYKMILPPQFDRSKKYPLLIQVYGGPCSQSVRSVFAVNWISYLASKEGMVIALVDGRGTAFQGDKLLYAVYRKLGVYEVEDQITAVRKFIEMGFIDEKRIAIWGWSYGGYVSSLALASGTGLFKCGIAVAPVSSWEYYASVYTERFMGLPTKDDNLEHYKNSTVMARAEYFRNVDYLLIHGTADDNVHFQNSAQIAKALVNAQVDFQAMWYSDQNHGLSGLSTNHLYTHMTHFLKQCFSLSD
Test: capture ELISA: His-tagged rFAP captured by coated anti-His antibody (sFAP)
readout: EC50

NI-206.17A6 (antibody, V domains shown, Recombinant complete human IgG1 with a kappa light chain) VH: QVQLQESGPGLVRSTETLSLTCLVSGDSINSHYWSWLRQSPGRGLEWIGYIYYTGPTNYNPSLKSRVSISLGTSKDQFSLKLSSVTAADTARYYCARNKVFWRGSDFYYYMDVWGKGTTVTVSS VL: EIVLTQSPGTLSLSLGERATLSCRASQSLANNYLAWYQQKPGQAPRLLMYDASTRATGIPDRFSGSGSGTDFTLTISRLEPEDFAVYYCQQFVTSHHMYIFGQGTKVEIK ... 50.2 nM
NI-206.20A8 (antibody, V domains shown, Recombinant complete human IgG1) VH: EVQLVESGGGLVQPGGSLKLSCAGSGLDLSASAVHWVRQASGKGLEWIGRIRSKPNHYATTYLASVRGRFILSRDDSENTAYLQMNSLRTEDTAVYYCRIGILNSDHWGRGTLVTVSS VL: QSVLTQPPSASGTPGQTVIISCSGSSSNLGRKTLNWYQQLPGAAPKLLIFKNDQRASGVPDRFSASKSGTSASLTISGLQSDDEADYYCGTWDDSLDNWVFGGGTKVTVL ... 1.33 nM

Source of measurements: patent US20180022822A1
